Data origin: PubChem BioAssay (NCI)

System: SW-620 colon
Assay Explanation: NCI-60 one-dose screen, 48 h (100 = growth as untreated, 0 = no growth, -100 = all killed)
Condition: 10 µM
About 83,000 compounds went through this panel and 20% of them were active in at least one assay; those are over-represented in the sample as a whole.
Quantity Name: growth (%)
Form entry: value (%) — number only.

Write down growth measured for item COc1cc(/C=C/c2cc(/C=C/c3ccc(O)c(OC)c3)n(C(=O)Nc3ccccc3Cl)n2)ccc1O
6.99

Write down growth measured for item COc1cc2c3c(n(C4CCN(C)CC4)c(=O)c2cc1OC)-c1cc2c(cc1C3=O)OCO2
56.2

Write down growth measured for item NNC(=O)Oc1c(Cl)cc(Cl)cc1[N+](=O)[O-]
105

Write down growth measured for item O=C1Cc2cc(CCN3CCN(c4nsc5ccccc45)CC3)c(Cl)cc2N1
92.9

Write down growth measured for item COc1ccc2c(c1)C(=O)/C(=C/c1ncc([N+](=O)[O-])n1C)O2
-41

Write down growth measured for item CCN(CC)CCOC(=O)c1cc(OCc2ccccc2)c(OCc2ccccc2)c(OCc2ccccc2)c1
19.7

Write down growth measured for item COc1cccc(C2C(C#N)=C(N)Oc3cc(N)ccc32)c1 (centres undefined)
18.7

Write down growth measured for item CC(C)Cc1ccc([C@H](C)C(=O)O)cc1
110

Write down growth measured for item O=C(CNc1nnc(-c2cccnc2SCc2ccccc2)s1)Nc1nc(Cl)cc(Cl)n1
117

Write down growth measured for item O=C1c2c(c3c4ccccc4n(CCCCCCN4CCOCC4)c3c3[nH]c4ccccc4c23)C(=O)N1O
4.79
